pIC50 values recorded for Stromelysin-1 (Homo sapiens, UniProt P08254)
pIC50: −log10 of the molar value.
measured attribute: pIC50

Answered examples (2):
CNC(=O)[C@@H](NC(=O)[C@@H](CC(=O)NO)CC(C)C)c1ccccc1 = 8.36
CNC(=O)[C@H](Cc1c[nH]c2ccccc12)NC(=O)[C@@H](CC(=O)NO)CC(C)C = 8.72

(1) CNC(=O)[C@@H](NC(=O)[C@H](CCc1ccccc1)CC(=O)NO)c1ccccc1
(2) CNC(=O)[C@@H](NC(=O)[C@H](CC(C)C)[C@H](C)C(=O)NO)c1ccccc1
INPUT: Param pair: 1 , 2 . Output: the one whose pIC50 is numerically greater. Please respond with the label that marks your chosen entry.
OUTPUT: 2
